- assayed-system: T1, 6-Helix-Fd (HIV-1 gp41 (HXB2-like, printed sequence), stabilised)
- T1 construct: also called post-fusion six-helix bundle mimic
- T1 chain: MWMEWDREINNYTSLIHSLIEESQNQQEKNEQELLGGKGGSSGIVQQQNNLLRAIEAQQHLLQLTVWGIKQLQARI
- protocol-description: ELISA; competitive phage ELISA, on-phage bivalent scFv: binding to immobilised 5-Helix inhibited by free 5-Helix or free 6-Helix-Fd (concentrations for the trimer); apparent
- assay-setup: one partner purified
readout-kind: IC50

{"binder": "25D3 bivalent scFv on phage (scFv, V domains shown) VH: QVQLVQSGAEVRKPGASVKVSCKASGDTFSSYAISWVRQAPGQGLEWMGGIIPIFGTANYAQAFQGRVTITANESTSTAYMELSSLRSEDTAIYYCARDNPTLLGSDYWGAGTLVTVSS VL: DIQMTQSPSTLSASIGDRVTITCRASENIHRRLAWYQQKPGKAPKLLIYSAYSLASGAPSRFSGSGSGTDFTLTISSLQPDDFATYYCQQNSDYPHTFGGGTKLEIK", "meas-value": "170 nM"}

GET /values?readout=IC50&item= 25B8 bivalent scFv on phage (scFv, V domains shown) VH: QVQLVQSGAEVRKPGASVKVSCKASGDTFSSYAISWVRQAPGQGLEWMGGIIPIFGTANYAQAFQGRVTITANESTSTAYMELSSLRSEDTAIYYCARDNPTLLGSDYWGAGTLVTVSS VL: DIQMTQSPSTLSASIGDRVTITCRASENINRNLAWYQQKPGKAPKLLISRASRLASGAPSRFSGSGSGTDFTLTISSLQPDDFATYYCQQRYNYPYTFGGGTKLEIK
~100 nM

Could you share which IC50 value was measured for 25C12 bivalent scFv on phage (scFv, V domains shown) VH: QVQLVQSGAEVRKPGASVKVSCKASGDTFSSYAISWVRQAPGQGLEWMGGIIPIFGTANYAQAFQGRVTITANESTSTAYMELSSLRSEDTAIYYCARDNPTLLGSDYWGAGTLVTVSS VL: DIQMTQSPSTLSASIGDRVTITCRASEDISSVLAWYQQKPGKAPKLLIYNASRLASGAPSRFSGSGSGTDFTLTISSLQPDDFATYYCQQRANNPHTFGGGTKLEIK ?
~1000 nM

// query IC50 value for entry 25A10 bivalent scFv on phage (scFv, V domains shown) VH: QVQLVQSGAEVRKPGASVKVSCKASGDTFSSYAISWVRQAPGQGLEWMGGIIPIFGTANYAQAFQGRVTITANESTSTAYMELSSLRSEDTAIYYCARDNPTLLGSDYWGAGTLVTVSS VL: DIQMTQSPSTLSASIGDRVTITCRASESISHNLAWYQQKPGKAPKLLISNASRLASGAPSRFSGSGSGTDFTLTISSLQPDDFATYYCQQYSNYPLTFGGGTKLEIK
260 nM

Field request: IC50 | item: 25A12 bivalent scFv on phage (scFv, V domains shown) VH: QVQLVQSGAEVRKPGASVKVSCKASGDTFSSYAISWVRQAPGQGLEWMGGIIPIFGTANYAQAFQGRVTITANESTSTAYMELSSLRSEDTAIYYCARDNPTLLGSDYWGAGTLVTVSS VL: DIQMTQSPSTLSASIGDRVTITCRASEGIHRYLAWYQQKPGKAPKLLIYHASRLASGAPSRFSGSGSGTDFTLTISSLQPDDFATYYCQQRANYPYTFGGGTKLEIK
220 nM
